target: P. carinii DHFR (Pneumocystis carinii); experiment: biochemical
Sequence (P16184 whole entry): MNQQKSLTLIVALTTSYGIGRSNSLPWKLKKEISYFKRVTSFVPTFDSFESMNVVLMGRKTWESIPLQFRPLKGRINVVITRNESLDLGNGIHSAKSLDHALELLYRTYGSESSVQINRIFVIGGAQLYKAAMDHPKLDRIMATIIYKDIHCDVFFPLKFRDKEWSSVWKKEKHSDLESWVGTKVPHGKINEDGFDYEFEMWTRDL
quantity: IC50 (µM)
Give bare numbers, in µM.

CC1(C)N=C(N)N=C(N)N1c1ccc(O)cc1 = 250

The following compounds each have a reported value; give each one's IC50.
1. Cc1ccc(N2C(N)=NC(N)=NC2(C)C)cc1
2. CC1(C)N=C(N)N=C(N)N1c1ccc(Cl)cc1 [Substituent 4-Cl, reference compound]
3. COc1ccc(N2C(N)=NC(N)=NC2(C)C)cc1

Solution:
30
20
90

====

biological target: recombinant human DHFR (Homo sapiens); assay: Inhibition of recombinant human DHFR activity by substituted phenyl triazines at 25 µM DHF
Sequence (P00374 whole entry): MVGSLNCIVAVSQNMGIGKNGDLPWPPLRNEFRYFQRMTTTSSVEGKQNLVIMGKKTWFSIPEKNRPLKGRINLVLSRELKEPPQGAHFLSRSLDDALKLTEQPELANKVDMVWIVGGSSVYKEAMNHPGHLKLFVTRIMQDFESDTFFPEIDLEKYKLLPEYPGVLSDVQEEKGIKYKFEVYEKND
Provide the recorded IC50 for the entries that follow.

CCCCCCCCCCCCCCOc1cccc(N2C(N)=NC(N)=NC2(C)C)c1 [3-O(CH2)13CH3] = 31600 nM
CC1(C)N=C(N)N=C(N)N1c1cccc(CNc2cc(C(N)=O)cc(C(N)=O)c2)c1 [3-CH2NHϕ, 3',5'(CONH2)2] = 2800 nM
CC1(C)N=C(N)N=C(N)N1c1cccc(COc2ccc(Cl)c(Cl)c2Cl)c1 [3-CH2Oϕ, 2',3',4'Cl3] = 810 nM
CC1(C)N=C(N)N=C(N)N1c1cccc(CNc2ccc(C#N)cc2)c1 [3-CH2NHϕ, 4'CN] = 520 nM
CC1(C)N=C(N)N=C(N)N1c1cccc(COc2cccc(Cl)c2)c1 [3-CH20ϕ, 3'Cl] = 470 nM
CC1(C)N=C(N)N=C(N)N1c1cccc([N+](=O)[O-])c1 [Substituent 3-NO2] = 2760 nM
CC(=O)c1cccc(N2C(N)=NC(N)=NC2(C)C)c1 [Substituent 3-COCH3] = 21000 nM
CCCCCCCCCCCOc1cccc(N2C(N)=NC(N)=NC2(C)C)c1 [3-O(CH2)10CH3] = 8800 nM
COc1cccc(OCc2cccc(N3C(N)=NC(N)=NC3(C)C)c2)c1 [3-CH2Oϕ, 3'OCH3] = 360 nM
CCOc1cccc(N2C(N)=NC(N)=NC2(C)C)c1 [Substituent 3-OEt] = 13800 nM

Working through the 3 compounds below one at a time, give IC50 for each.
1. CC1(C)N=C(N)N=C(N)N1c1cccc(COc2cccc(CO)c2)c1 [3-CH2Oϕ, 3'CH2OH]
2. CCCCCCOc1cccc(N2C(N)=NC(N)=NC2(C)C)c1 [3-O(CH2)5CH3]
3. CC1(C)N=C(N)N=C(N)N1c1cccc(COc2cccc3ccccc23)c1 [3-CH20(a)Naphthyl]

Solution:
["970 nM", "6400 nM", "560 nM"]

Each compound below has a recorded value; state its IC50.
1. Cc1cccc(OCc2cccc(N3C(N)=NC(N)=NC3(C)C)c2)c1 [3-CH20ϕ, 3'CH3]
2. CCOC(=O)c1cccc(N2C(N)=NC(N)=NC2(C)C)c1 [Substituent 3-CO2Et]

Solution:
650 nM
114000 nM

====

I'd be grateful if you could share measured Ki for these entries.
target: P. carinii DHFR (Pneumocystis carinii); experiment: biochemical
Answers are plain numbers, in nM.

Give one value of Ki per listed molecule.
1. CC1(C)N=C(N)N=C(N)N1c1ccc(Cl)cc1 [Substituent 4-Cl, reference compound]
2. COc1ccc(N2C(N)=NC(N)=NC2(C)C)cc1
3. CC1(C)N=C(N)N=C(N)N1c1ccc(O)cc1
4. Cc1ccc(N2C(N)=NC(N)=NC2(C)C)cc1

Solution:
1: 70; 2: 315; 3: 875; 4: 105
